# TESTED_ON: Serine/threonine-protein kinase Nek11 (Homo sapiens) (UniProt Q8NG66)
# Sequence (Q8NG66 whole entry): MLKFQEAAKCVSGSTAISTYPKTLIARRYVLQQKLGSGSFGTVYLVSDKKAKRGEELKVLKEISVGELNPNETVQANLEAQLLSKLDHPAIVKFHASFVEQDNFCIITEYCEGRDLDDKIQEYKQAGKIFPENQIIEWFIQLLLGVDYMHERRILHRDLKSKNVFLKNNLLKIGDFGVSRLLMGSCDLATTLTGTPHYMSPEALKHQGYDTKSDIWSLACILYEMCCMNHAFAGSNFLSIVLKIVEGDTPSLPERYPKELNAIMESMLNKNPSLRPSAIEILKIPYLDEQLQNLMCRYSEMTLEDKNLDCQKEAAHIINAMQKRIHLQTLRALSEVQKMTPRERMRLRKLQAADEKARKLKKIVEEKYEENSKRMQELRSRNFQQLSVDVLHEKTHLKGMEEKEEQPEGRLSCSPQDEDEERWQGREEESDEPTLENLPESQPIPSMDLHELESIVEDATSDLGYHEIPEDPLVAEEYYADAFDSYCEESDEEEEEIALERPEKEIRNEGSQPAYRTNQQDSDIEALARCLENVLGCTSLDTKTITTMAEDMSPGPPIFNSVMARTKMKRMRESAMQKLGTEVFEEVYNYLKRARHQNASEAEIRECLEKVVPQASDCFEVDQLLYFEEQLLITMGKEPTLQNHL
# ASSAY_NAME: Inhibition of NEK11 (unknown origin) at 1 uM relative to control
MEASUREMENT_TYPE: inhibition (%)
Give bare numbers, in %.

Study these solved cases before continuing.
CC(C)(C)c1nc(-c2cccc(NS(=O)(=O)c3c(F)cccc3F)c2F)c(-c2ccnc(N)n2)s1: 0.2
COc1cccc(C2=C(Nc3cccc(O)c3)C(=O)NC2=O)c1: 0
c1ccc(-c2ccnc3[nH]ccc23)cc1: 0
COc1cccc(C2=C(Nc3ccc(Cl)c(C(=O)O)c3)C(=O)NC2=O)c1: 27
Nc1nccc2scc(-c3ccc4c(c3)CCN4C(=O)Cc3cc(F)ccc3F)c12: 9
Nc1ncc(-c2cccnc2)c2scc(-c3ccc4c(c3)CCN4C(=O)Cc3ccccc3)c12: 44

Below is a list of molecules. For each, state its recorded inhibition.
1. Cn1cc(-c2ccc3c(c2)CCN3C(=O)Cc2ccccc2Cl)c2c(N)ncnc21
2. O=c1[nH]ccc2nc(N[C@@H]3CCCNC3)nc(Nc3ccc(S(=O)(=O)N4CCOCC4)cc3)c12
3. COc1ccc(C2=C(Nc3cccc(C(=O)O)c3)C(=O)NC2=O)cc1
4. Nc1ncc(-c2cn[nH]c2)c2scc(-c3ccc4c(c3)CCN4C(=O)Cc3ccccc3)c12
5. COc1cccc(C2=C(Nc3cccc(Cl)c3)C(=O)NC2=O)c1
6. COc1cc(Nc2ncc3c(C)nc(-c4cc5ccccc5[nH]4)n3n2)cc(OC)c1OC
7. CC(C)c1nc(-c2cccc(NS(=O)(=O)c3c(F)cccc3F)c2F)c(-c2ccnc(Nc3ccc(N4CCOCC4)nc3)n2)s1

a:
1: 0; 2: 100; 3: 30; 4: 87; 5: 0; 6: 86; 7: 1.4

* * *

Would you mind telling me the reported % control of each entry?
# TESTED_ON: Serine/threonine-protein kinase Nek1 (Homo sapiens) (UniProt Q96PY6)
# Sequence (Q96PY6 whole entry): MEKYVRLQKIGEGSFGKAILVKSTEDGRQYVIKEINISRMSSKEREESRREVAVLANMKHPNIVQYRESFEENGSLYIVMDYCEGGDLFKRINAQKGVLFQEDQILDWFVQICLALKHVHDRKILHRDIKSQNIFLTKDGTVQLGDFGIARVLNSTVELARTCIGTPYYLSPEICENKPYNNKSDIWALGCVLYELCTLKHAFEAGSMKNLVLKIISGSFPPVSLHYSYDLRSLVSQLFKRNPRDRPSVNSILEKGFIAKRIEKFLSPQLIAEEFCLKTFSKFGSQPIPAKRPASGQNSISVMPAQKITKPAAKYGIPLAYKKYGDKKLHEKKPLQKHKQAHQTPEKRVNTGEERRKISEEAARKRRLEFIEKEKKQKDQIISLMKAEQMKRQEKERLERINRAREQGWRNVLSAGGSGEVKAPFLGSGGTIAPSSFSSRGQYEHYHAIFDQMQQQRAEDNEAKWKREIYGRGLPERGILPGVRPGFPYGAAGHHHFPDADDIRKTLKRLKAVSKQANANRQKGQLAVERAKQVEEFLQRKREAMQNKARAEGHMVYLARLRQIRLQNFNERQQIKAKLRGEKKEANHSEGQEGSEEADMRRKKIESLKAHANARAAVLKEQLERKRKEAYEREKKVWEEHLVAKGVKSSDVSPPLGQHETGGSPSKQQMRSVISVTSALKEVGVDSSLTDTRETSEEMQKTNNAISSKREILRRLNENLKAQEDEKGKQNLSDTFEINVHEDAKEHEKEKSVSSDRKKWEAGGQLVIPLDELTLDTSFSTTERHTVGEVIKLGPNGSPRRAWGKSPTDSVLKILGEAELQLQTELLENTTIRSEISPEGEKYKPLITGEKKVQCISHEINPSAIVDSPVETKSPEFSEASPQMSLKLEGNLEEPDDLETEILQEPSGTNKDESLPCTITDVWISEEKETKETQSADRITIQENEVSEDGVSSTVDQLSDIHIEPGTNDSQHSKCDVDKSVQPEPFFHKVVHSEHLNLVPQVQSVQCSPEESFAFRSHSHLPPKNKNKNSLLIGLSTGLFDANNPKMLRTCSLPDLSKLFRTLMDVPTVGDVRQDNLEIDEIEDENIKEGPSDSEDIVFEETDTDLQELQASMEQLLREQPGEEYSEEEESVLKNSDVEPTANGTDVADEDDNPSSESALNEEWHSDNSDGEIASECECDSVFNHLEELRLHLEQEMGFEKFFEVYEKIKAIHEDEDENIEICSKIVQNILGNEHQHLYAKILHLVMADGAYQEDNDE
# ASSAY_NAME: Inhibition of NEK1 (unknown origin) at 10 uM relative to control
Answers are plain numbers, in %.

Study these solved cases before continuing.
CN(C)C/C=C/C(=O)Nc1ccc(C(=O)Nc2cccc(Nc3nccc(-c4cccnc4)n3)c2)cc1: 63
O=C1NC(=O)/C(=C/c2ccc3nccc(-c4ccncc4)c3c2)S1: 47
CN(C)C/C=C/C(=O)Nc1cccc(C(=O)Nc2ccc(Nc3nccc(/C(C#N)=C4\Nc5ccccc5S4)n3)cc2)c1: 100

Please turn your attention to the following entry.
q: Which % control is reported for this molecule? CN(C)C/C=C/C(=O)Nc1cccc(C(=O)Nc2ccc(Nc3nccc(-c4c(-c5ccccc5)nn5ccccc45)n3)cc2)c1
a: 100

* * *

# TESTED_ON: Serine/threonine-protein kinase Nek9 (Homo sapiens)
# Sequence (Q8TD19 whole entry): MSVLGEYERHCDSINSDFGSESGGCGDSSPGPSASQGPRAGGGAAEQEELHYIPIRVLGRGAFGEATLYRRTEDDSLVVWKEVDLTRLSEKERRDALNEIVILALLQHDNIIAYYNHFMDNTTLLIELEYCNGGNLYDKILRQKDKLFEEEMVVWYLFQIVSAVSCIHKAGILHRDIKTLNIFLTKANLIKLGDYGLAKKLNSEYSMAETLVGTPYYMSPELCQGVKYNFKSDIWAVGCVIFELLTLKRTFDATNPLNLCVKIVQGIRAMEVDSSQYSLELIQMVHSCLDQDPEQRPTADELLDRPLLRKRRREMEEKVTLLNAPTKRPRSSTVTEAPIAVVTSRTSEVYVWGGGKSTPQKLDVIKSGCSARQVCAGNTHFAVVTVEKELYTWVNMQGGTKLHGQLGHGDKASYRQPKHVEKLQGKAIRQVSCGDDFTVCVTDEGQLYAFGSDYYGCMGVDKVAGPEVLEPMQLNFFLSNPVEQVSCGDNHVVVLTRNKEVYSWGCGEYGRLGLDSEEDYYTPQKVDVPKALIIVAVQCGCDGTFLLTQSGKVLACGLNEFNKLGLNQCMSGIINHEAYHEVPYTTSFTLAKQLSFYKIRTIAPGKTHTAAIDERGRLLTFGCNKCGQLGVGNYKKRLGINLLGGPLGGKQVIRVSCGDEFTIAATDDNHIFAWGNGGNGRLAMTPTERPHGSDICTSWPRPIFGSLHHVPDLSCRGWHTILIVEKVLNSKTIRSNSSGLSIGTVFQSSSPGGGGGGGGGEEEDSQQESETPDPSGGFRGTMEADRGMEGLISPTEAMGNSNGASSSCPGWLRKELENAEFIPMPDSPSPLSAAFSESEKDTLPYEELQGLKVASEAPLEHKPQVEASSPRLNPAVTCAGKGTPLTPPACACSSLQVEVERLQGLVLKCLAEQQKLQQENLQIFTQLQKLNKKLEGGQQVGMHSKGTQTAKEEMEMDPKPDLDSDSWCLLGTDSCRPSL
MEASUREMENT_TYPE: Kd

q: Which Kd is reported for this molecule? N#CCNC(=O)c1ccc(-c2ccnc(Nc3ccc(N4CCOCC4)cc3)n2)cc1
a: < 100 nM

* * *

# TESTED_ON: Serine/threonine-protein kinase Nek5 (Homo sapiens) (UniProt Q6P3R8)
# Sequence (Q6P3R8 whole entry): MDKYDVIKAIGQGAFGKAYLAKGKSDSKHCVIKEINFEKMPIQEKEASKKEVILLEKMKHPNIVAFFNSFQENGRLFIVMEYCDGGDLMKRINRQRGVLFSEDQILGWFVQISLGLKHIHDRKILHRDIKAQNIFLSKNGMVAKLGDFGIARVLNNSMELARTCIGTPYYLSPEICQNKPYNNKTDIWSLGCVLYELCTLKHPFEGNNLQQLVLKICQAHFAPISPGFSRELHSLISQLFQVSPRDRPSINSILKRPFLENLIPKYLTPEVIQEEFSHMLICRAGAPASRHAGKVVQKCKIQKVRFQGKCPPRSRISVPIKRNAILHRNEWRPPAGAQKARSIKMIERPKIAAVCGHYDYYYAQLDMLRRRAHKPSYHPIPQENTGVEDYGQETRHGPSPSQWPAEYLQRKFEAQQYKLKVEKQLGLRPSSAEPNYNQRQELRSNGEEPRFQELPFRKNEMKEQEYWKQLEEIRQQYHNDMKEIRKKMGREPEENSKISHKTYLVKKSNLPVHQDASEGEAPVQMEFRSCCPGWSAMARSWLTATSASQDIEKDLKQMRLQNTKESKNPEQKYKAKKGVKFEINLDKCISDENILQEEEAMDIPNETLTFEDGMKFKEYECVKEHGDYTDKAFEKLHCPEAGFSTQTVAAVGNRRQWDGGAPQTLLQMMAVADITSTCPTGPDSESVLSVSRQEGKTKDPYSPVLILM
# ASSAY_NAME: Inhibition of NEK5 (unknown origin) at 10 uM relative to control
MEASUREMENT_TYPE: % control (%)
Give bare numbers, in %.

Study these solved cases before continuing.
Cc1ccc(NC(=O)c2ccc(NC(=O)/C=C/CN(C)C)cc2)cc1Nc1nccc(-c2cccnc2)n1: 51
CN(C)C/C=C/C(=O)Nc1ccc(C(=O)Nc2cccc(Nc3nccc(-c4cccnc4)n3)c2)cc1: 2.2
Cc1cc(NC(=O)c2cccc(NC(=O)/C=C/CN(C)C)c2)ccc1Nc1nccc(-c2cccnc2)n1: 92
O=C1NC(=O)/C(=C/c2ccc3nccc(-c4ccncc4)c3c2)S1: 100

Please turn your attention to the following entry.
q: Which % control is reported for this compound? CCCS(=O)(=O)Nc1ccc(F)c(C(=O)c2c[nH]c3ncc(-c4ccc(Cl)cc4)cc23)c1F
a: 100
